Target: T1, hERα-LBD (ligand binding domain of estrogen receptor α) (human, UniProt P03372 297-554)
T1 construct: Assayed with estradiol, diethylstilbestrol, genistein or tamoxifen present; the ligand is named under assay in each row
T1 sequence (looked up): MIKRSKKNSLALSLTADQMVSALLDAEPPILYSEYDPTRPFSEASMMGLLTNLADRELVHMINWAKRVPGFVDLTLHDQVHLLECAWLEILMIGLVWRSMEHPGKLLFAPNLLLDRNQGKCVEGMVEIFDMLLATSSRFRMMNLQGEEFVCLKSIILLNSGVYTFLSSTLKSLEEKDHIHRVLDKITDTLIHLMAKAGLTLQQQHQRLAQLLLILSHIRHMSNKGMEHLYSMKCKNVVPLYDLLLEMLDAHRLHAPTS
Assay: fluorescence polarization, labelled peptide 10 nM, hERα-LBD titrated, diethylstilbestrol present
Ends that are not written are not given here.
reported_property: Kd (nM)

>  <binder>
C(5‑iodoacetamidofluorescein)YSQTSHKLVQLLTTTAEQQ [SRC1-1 coregulator peptide]

>  <value>
853

$$$$
>  <binder>
C(5‑iodoacetamidofluorescein)LQEKHRILHKLLQNGNSPA [SRC3-2 coregulator peptide]

>  <value>
415

$$$$
>  <binder>
C(5‑iodoacetamidofluorescein)KKKENALLRYLLDKDDTKD [SRC2-3 coregulator peptide]

>  <value>
786

$$$$
>  <binder>
C(5‑iodoacetamidofluorescein)DSKGQTKLLQLLTTKSDQM [SRC2-1 coregulator peptide]

>  <value>
896

$$$$
>  <binder>
CLKEKHKILHRLLQDSSSPV (5-iodoacetamidofluorescein coupled to the amino terminal cysteine, also called SRC2-2 peptide) [SRC2-2 coregulator peptide]

>  <value>
277

$$$$

1: C(5‑iodoacetamidofluorescein)LTARHKILHRLLQEGSPSD [SRC1-2 coregulator peptide]
2: C(5‑iodoacetamidofluorescein)ESKDHQLLRYLLDKDEKDL [SRC1-3 coregulator peptide]
Data request: Given the two records 1 and 2 , choose the one whose Kd value is lower. Pick one and reply with its label.
Data returned: 1
(1: 302 nM, 2: 1460 nM)
